- Assay Info: Microsomal stability assay, rat liver microsomes
- Format: in vitro ADME
- Details: male, Sprague Dawley, pooled rat liver microsomes, pH 7.4; 3 μM compound, 0.5 mg/ml rat liver microsomes, 37° C., 2 mM NADPH; read-out: RLM t½
Assay Endpoint: half-life at 3 μM

In [3]: df
Out[3]:
                                   compound  result
0  Cc1cc(Br)ccc1Nc1cc2nnc(C)n2cc1C(=O)NOC[C@@H](O)CO [Compound 3b]   > 2 h
